# Assay protocol: protein stability index of a GFP-peptide fusion (yeast GPS) (PSI 1-4); higher = more stable; sorted into four equal gates, so the index is relative within each strain
# Test conditions: pdr5∆
Decide by protein stability index: equal to or exceeding 3 means class 1, less means class 0.

Prompt: Kindly determine if protein stability index recorded for IEDEDEPFNAGIKYHAT [SMC1] is above or exactly 3.
Completion: class 0

Prompt: Can you check REMALCRELHNKHLTTL [SSN3] next?
Completion: class 0

Prompt: Can you check MIQKVMEYLKSSKSLDL [RPN5] next?
Completion: class 0

Prompt: Can you check LTGEATANALPLPAVFS [RPL4A] next?
Completion: class 0

Prompt: Can you check LSLDSDVKFPSNTTTQI [SMC3] next?
Completion: class 1

Prompt: Can you check KRAFENFKKFNERRKDL [SMC3] next?
Completion: class 1

Prompt: Can you check PFVLAENMWPFSYQEVE [CDC53] next?
Completion: class 0

Prompt: Can you check QAMGVFLTNYNVRMDTM [RPB2] next?
Completion: class 1

Prompt: Can you check YNSVRPFGVSTIFGGVD [PRE10] next?
Completion: class 0

Prompt: Can you check NSPTSFFDGSASSTPIP [YOR098C/NUP1] next?
Completion: class 0

Prompt: Can you check VPYVLMGQIATFIYFAY [COB] next?
Completion: class 0

Prompt: Can you check DAGKIDKHLYHVLYKES [RPL19A] next?
Completion: class 1

Prompt: Can you check ECENEIKTKQMSLKKCQ [SMC2] next?
Completion: class 1

Prompt: Can you check TILCTPTGGKAKLSEGT [RPS27A] next?
Completion: class 0

Prompt: Can you check TLSNAERAKNVNGLLQV [GAL11] next?
Completion: class 1

Prompt: Can you check EGEPVNSPNYFVAKLAA [COR1] next?
Completion: class 1

Prompt: Can you check GTISKLENKENGLLNEI [SMC2] next?
Completion: class 1

Prompt: Can you check QLIGSNIELHSLYTSRE [PUP1] next?
Completion: class 1

Prompt: Can you check KISLLRPSFQNNRISNA [SWP82] next?
Completion: class 0

Prompt: Can you check LFPNELYNVMGINKKKL [RPC31] next?
Completion: class 0

Prompt: Can you check TIWCVCDSYLDADKELS [BRR2] next?
Completion: class 0

Prompt: Can you check LLNLPPFQVSSFVKETK [SRB8] next?
Completion: class 0

Prompt: Can you check PYAIVKGKARLGTLVNQ [RPL8A] next?
Completion: class 0

Prompt: Can you check LRLKLFLYEILSSLKSF [SRB8] next?
Completion: class 0

Prompt: Can you check RIIGLSATLPNYEDVGR [BRR2] next?
Completion: class 0

Prompt: Can you check GVVVLRDREPKEPVALI [RPN2] next?
Completion: class 1

Prompt: Can you check DRVKVIECFKPGDIVRA [CSL4] next?
Completion: class 0

Prompt: Can you check AVGNLGNAIEVTEDGSI [RPL22B] next?
Completion: class 0

Prompt: Can you check RNQILVSITDAPKIHIL [YMR129W/POM152] next?
Completion: class 0

Prompt: Can you check TGESEESSSEDDYEDQD [IRR1] next?
Completion: class 1

Prompt: Can you check IADQDMEDEDMVDVIID [ESC2] next?
Completion: class 1

Prompt: Can you check ILNSHFDALRSLDDNST [YJL041W/NSP1] next?
Completion: class 0

Prompt: Can you check PQNTTATTGGLFGSKPQ [YGR119C/NUP57] next?
Completion: class 1

Prompt: Can you check LLISYGVSIENENKVII [SRB4] next?
Completion: class 0

Prompt: Can you check GRDTTDYLKNIIVENSG [RPN2] next?
Completion: class 0

Prompt: Can you check STFRLNLSVTSPYNADF [RPO21] next?
Completion: class 0

Prompt: Can you check EYMVQYIDEMYNHNDGG [RRI1] next?
Completion: class 1

Prompt: Can you check RLIDSMKQYSYLMDSKN [RRI1] next?
Completion: class 0

Prompt: Can you check NQDSVKTYALESINNVV [RPN2] next?
Completion: class 1

Prompt: Can you check IYATFLNESDCLEACSF [YDL116W/NUP84] next?
Completion: class 0

Prompt: Can you check ASKSKKKFNMGKEFEAR [RPC53] next?
Completion: class 1

Prompt: Can you check LGNVDAFQLADGIHYIL [PRP8] next?
Completion: class 0

Prompt: Can you check QREDKLKSHYYQTCKNS [SMC2] next?
Completion: class 0

Prompt: Can you check GLSLAGLAPDARVLSNY [PRE5] next?
Completion: class 0

Prompt: Can you check AHMWPRVHDQPLIWQLL [POP3] next?
Completion: class 0
